# TEST_SYSTEM: T1, IL10Rα/IL2Rγ receptor (human) (UniProt Q13651)
# T1 sequence (looked up) 1: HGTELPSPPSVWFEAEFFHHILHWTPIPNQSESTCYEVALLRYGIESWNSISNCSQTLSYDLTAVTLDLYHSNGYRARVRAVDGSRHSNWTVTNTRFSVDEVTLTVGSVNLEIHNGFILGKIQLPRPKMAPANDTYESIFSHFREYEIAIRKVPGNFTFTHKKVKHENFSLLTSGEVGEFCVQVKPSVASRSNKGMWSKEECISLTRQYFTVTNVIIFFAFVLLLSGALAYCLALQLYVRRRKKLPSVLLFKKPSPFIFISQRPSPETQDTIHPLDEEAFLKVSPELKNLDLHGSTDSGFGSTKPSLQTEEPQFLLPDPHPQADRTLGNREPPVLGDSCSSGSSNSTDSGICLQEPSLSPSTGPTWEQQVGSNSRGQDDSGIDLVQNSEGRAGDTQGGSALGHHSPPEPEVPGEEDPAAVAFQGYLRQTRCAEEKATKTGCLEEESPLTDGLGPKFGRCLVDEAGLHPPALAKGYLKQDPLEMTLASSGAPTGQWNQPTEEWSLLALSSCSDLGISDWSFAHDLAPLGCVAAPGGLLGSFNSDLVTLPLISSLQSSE
# T1 sequence (looked up) 2: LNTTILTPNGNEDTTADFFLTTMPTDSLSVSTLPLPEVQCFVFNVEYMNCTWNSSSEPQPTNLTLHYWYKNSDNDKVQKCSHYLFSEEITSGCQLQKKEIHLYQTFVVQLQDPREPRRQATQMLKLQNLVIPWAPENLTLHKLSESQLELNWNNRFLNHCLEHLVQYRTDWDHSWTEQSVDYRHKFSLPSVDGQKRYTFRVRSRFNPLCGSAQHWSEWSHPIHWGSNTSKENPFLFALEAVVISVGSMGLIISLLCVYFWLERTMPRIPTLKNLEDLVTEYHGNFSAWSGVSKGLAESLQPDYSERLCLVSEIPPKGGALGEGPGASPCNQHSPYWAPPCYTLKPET
# EXPERIMENT_NOTES: cell-based or functional assay
Please go through the items and note down their IL-9 secretion, CD8 T cells, at 10 µM.
Numbers only, in pg/mL.

Below: 5 binders and their reported IL-9 secretion, CD8 T cells, at 10 µM.
hIL10Ra_VHH14 - hIL2Rg_VHH19, linker GS, tag his (bispecific antibody, not shown: small tags and cut ends) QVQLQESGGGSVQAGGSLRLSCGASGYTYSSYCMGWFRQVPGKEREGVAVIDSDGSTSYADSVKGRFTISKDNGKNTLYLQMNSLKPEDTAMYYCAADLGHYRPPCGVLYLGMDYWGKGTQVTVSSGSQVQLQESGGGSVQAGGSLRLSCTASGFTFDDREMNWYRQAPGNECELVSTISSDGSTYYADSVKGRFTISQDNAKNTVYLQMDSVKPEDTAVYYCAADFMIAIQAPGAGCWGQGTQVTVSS    1730
hIL10Ra_VHH14 - hIL2Rg_VHH19, linker GGGS, tag his (bispecific antibody, not shown: small tags and cut ends) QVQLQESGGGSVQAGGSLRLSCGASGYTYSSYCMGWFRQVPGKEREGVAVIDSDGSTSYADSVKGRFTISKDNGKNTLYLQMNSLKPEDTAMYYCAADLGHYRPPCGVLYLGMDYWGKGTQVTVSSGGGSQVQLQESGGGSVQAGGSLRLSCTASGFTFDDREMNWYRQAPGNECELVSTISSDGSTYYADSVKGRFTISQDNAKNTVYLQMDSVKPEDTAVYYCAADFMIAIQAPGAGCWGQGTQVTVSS    1680
hIL10Ra_VHH14 - hIL2Rg_VHH19, No linker, tag his (bispecific antibody, not shown: small tags and cut ends) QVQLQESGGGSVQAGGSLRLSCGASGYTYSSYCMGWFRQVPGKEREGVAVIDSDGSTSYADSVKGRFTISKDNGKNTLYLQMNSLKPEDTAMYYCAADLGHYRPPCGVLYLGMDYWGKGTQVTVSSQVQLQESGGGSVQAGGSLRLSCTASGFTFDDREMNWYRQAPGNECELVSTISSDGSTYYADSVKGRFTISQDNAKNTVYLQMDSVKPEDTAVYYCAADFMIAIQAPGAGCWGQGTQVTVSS    1440
hIL10Ra_VHH14 - hIL2Rg_VHH19, linker GGGSGGGS, tag his (bispecific antibody, not shown: small tags and cut ends) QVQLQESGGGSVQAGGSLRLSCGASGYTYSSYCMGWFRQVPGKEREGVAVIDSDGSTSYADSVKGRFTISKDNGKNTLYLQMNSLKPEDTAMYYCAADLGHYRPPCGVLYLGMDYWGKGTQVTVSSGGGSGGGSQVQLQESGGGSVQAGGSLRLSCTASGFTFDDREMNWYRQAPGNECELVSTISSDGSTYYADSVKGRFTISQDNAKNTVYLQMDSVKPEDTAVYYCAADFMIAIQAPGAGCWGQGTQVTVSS    1880
hIL10Ra_VHH14 - hIL2Rg_VHH19, linker …, tag his (bispecific antibody, not shown: small tags and cut ends) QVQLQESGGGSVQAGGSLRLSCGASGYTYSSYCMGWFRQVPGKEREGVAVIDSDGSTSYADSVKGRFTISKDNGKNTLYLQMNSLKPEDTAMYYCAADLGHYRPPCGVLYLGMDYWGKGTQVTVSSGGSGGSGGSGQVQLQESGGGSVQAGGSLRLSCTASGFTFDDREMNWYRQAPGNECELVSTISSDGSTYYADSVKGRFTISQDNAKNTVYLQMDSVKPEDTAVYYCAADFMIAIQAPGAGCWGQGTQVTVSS    2050

// next item, IL-9 secretion, CD8 T cells, at 10 µM requested
q: Can you share its IL-9 secretion, CD8 T cells, at 10 µM? I mean this binder: hIL10Ra_VHH14 - hIL2Rg_VHH19, linker GGGS, tag Fc (bispecific antibody, not shown: a dimerising Fc or GST) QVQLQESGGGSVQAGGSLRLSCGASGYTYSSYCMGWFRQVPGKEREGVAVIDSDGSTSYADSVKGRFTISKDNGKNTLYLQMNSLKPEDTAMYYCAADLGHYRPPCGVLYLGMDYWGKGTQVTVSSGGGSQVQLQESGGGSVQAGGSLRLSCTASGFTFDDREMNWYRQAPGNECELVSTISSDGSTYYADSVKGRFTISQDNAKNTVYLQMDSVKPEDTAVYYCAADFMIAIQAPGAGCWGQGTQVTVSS
a: 2150
